test system: PC49; assay: qHTS profiling for inhibitors of Plasmodium falciparum proliferation (AID 504749); further: nearly all actives have a fitted effect of over 60% in size; settings: P. falciparum in erythrocytes, SYBR Green DNA, 72 h; series mostly up to 28.7 µM
Inconclusive results are not listed. Calls of active or inactive are those of the source. The call rests on the fitted dose curve; in most records, active means well fitted inhibition curve with a large enough effect; inconclusive means small, poorly fitted or top-dose-only effect; inactive means flat fitted curve, though single readings scatter.
Hello, when you answer, please use one of the following outcomes: active, inactive

[
  {
    "compound": "CCCCCCCCCCCC(CC1OC(=O)C1CCCCCC)OC(=O)C(CC(C)C)NC=O (stereo not given)",
    "classification": "active"
  },
  {
    "compound": "CCC(C(=O)O)C1CCC(C)C(C(C)C(O)C(C)C(=O)C(CC)C2OC3(C=CC(O)[C@@]4(CC[C@](C)(C5CC[C@@](O)(CC)C(C)O5)O4)O3)C(C)CC2C)O1 (stereo not given in full)",
    "classification": "active"
  },
  {
    "compound": "Nc1nc2c(c(=O)[nH]1)N(C=O)[C@H](CNc1ccc(C(=O)N[C@@H](CCC(=O)O)C(=O)O)cc1)CN2",
    "classification": "inactive"
  }
]

Qu. Recorded test outcome, item OCC(O)C(O)C(O)CO (stereo not given)
Ans. inactive

Qu. Recorded test outcome, item COc1cccc2c1C(=O)c1c(O)c3c(c(O)c1C2=O)C[C@@](O)(C(=O)CO)C[C@@H]3O[C@H]1C[C@H](N)[C@H](OC2CCCCO2)[C@H](C)O1 (stereo not given in full)
Ans. active

----------
Answer each item with its documented viability (% of control).
assay: High-throughput drug toxicity screening in the BPDCN cell line Cal-1 (AID 1224825); settings: Cal-1 BPDCN cell viability, qHTS; at 45.8 µM (top of the series) unless noted;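 further: 100% = DMSO and 0% = bortezomib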
Give bare numbers, in %.

Examples with their reported viability (% of control) follow.
[
  {
    "mol": "NC(=O)Nc1cc(-c2ccc(CN3CCOCC3)cc2)sc1C(N)=O",
    "viability (% of control) [%]": 6.64
  },
  {
    "mol": "N#CC(=C(O)c1ccc(Cl)cc1Cl)c1nc2cc(Cl)ccc2c(=O)[nH]1",
    "viability (% of control) [%]": 95.9
  },
  {
    "mol": "NC(=O)c1ncn([C@@H]2O[C@H](CO)[C@@H](O)[C@@H]2O)c1O",
    "viability (% of control) [%]": 102
  },
  {
    "mol": "C[N+](C)([O-])CCNc1ccc(NCC[N+](C)(C)[O-])c2c1C(=O)c1c(O)ccc(O)c1C2=O",
    "viability (% of control) [%]": 19.7
  },
  {
    "mol": "OCc1ccccc1O[C@@H]1O[C@H](CO)[C@H](O)[C@H](O)[C@H]1O",
    "viability (% of control) [%]": 108
  },
  {
    "mol": "CC(=O)O[C@]1(C(C)=O)CC[C@H]2[C@@H]3C=C(C)C4=CC(=O)CC[C@]4(C)[C@@H]3CC[C@@]21C",
    "viability (% of control) [%]": 3.38
  },
  {
    "mol": "CC1(C)[C@H](O[C@H]2O[C@H](C(=O)O)[C@@H](O)[C@H](O)[C@H]2O[C@@H]2O[C@H](C(=O)O)[C@@H](O)[C@H](O)[C@H]2O)CC[C@@]2(C)[C@H]1CC[C@]1(C)[C@H]2C(=O)C=C2[C@H]3C[C@@](C)(C(=O)O)CC[C@]3(C)CC[C@]21C",
    "viability (% of control) [%]": 125
  }
]

Qu. Param item = "c1coc(CNc2ncnc3nc[nH]c23)c1" ; retrieve measured viability (% of control).
Ans. 102

----------
test: P-glycoprotein substrates identified in KB-3-1 adenocarcinoma cell line, qHTS therapeutic library screen (AID 1346986); details: KB-3-1 parental cells viability, CellTiter-Glo, 72 h; series mostly up to 44.5 µM; further: nearly all actives have a fitted effect of over 60% in size
Records with an inconclusive call do not appear. Activity calls are given as the source filed them. Calls follow the shape of the dose curve; as a rule, active = well fitted inhibition curve with a large enough effect; inconclusive = small, poorly fitted or top-dose-only effect; inactive = no such curve, though single readings can be large or run the other way.
Hello, when you answer, please use one of the following outcomes: active, inactive

Worked examples, 5 molecules total:
[
  {
    "molecule": "C=Cc1c(C)c2cc3nc(cc4[nH]c(cc5nc(cc1[nH]2)C(C)=C5CCC(=O)O)c(CCC(=O)OC)c4C)[C@@]1(C)C3=CC=C(C(=O)OC)[C@H]1C(=O)OC",
    "classification": "inactive"
  },
  {
    "molecule": "Cc1ccc(O)c(C(CCN(C(C)C)C(C)C)c2ccccc2)c1 (stereo not drawn)",
    "classification": "inactive"
  },
  {
    "molecule": "C[C@@H]1[C@H](C)CC[C@]2(C(=O)O)CC[C@]3(C)C(=CC[C@@H]4[C@@]5(C)C[C@@H](O)[C@H](O)[C@@](C)(CO)[C@H]5CC[C@]43C)[C@@H]12",
    "classification": "inactive"
  },
  {
    "molecule": "CON=C(C(=O)N[C@@H]1C(=O)N2C(C(=O)O)=C(CSC(=O)c3ccco3)CS[C@H]12)c1csc(N)n1",
    "classification": "inactive"
  },
  {
    "molecule": "OC[C@@H](O)[C@@H](O)[C@H](O)[C@@H](O)CO",
    "classification": "inactive"
  }
]

Qu. Recorded test outcome, item "C=CC(=O)N1CCc2ccc(-n3c(=O)ccc4cnc5ccc(-c6cnn(C)c6)cc5c43)cc21"
Ans. active

Qu. Recorded test outcome, item "O=C(Nc1ccc(Oc2ccnc3[nH]ccc23)c(F)c1)c1cccn(-c2ccc(F)cc2)c1=O"
Ans. inactive

Qu. Recorded test outcome, item Cc1noc(-c2ccc(CSCCC(=O)O)cc2)c1NC(=O)OC(C)c1ccccc1Cl (stereo not drawn)
Ans. inactive

----------
assay: qHTS of pediatric cancer cell lines to identify multiple opportunities for drug repurposing: Primary screen for SK-N-SH cells (AID 1347098); details: SK-N-SH viability, CellTiter-Glo luminescence, 48 h; series mostly up to 57 µM; further: nearly all actives have a fitted effect of over 65% in size
Inconclusive results are not listed. The source made the active and inactive calls. The call rests on the fitted dose curve; in most records, active means well fitted cell-killing curve with a large enough effect; inconclusive means small, poorly fitted or top-dose-only effect; inactive means no such curve, though single readings can be large or run the other way. Residues, ends and D or L forms follow the SMILES beside them. *: point of attachment. Cbz = O=C(OCc1ccccc1)*
Hello, when you answer, please use one of the following outcomes: true = active, false = inactive

Qu. Recorded test outcome, item N[C@H]1CN(c2c(F)cc3c(=O)c(C(=O)O)cn(C4C[C@@H]4F)c3c2Cl)CC12CC2 (stereo partly drawn)
Ans. false

Qu. Recorded test outcome, item "O=C(Nc1cccc(Nc2ncc(Br)c(NCCc3cnc[nH]3)n2)c1)N1CCCC1"
Ans. true

Qu. Recorded test outcome, item Oc1cc2c(cc1O)C1c3ccc(O)c(O)c3OCC1(O)C2 (stereo not drawn)
Ans. false

Qu. Recorded test outcome, item CC(C)C[C@@H](C=O)NC(=O)[C@H](CC(C)C)NC(=O)[C@H](CC(C)C)NC(=O)OCc1ccccc1 (Cbz-Leu-Leu-Leu-aldehyde)
Ans. true

Qu. Recorded test outcome, item "C[C@H]1[C@@H](OC(=O)CCC(=O)O)O[C@@H]2O[C@@]3(C)CC[C@@H]4[C@H](C)CC[C@@H]1[C@@]24OO3"
Ans. true

Qu. Recorded test outcome, item "CCc1c(O)cc(O)c(C(=O)c2ccc(OCCN3CCOCC3)c(OC)c2)c1CC(=O)N(CCOC)CCOC"
Ans. true

Qu. Recorded test outcome, item "NC1=N[C@H]2[C@H](CS[C@H]2CCCCC(=O)O)N1"
Ans. false

Qu. Recorded test outcome, item "C=C(C)[C@@H]1CC[C@]2(C(=O)O)CC[C@]3(C)[C@H](CC[C@@H]4[C@@]5(C)CC[C@H](O)C(C)(C)[C@@H]5CC[C@]43C)[C@@H]12"
Ans. false

----------
test system: Tov-21-G; test: Primary qHTS to identify gynecologic anti-cancer compounds using libraries of approved drugs and bioactive compounds (AID 1345084); settings: Gynecologic cancer cell panel viability, ATPlite luminescence, 48 h; series mostly up to 57.5 µM; further: nearly all actives have a fitted effect of over 55% in size
Results filed as inconclusive are left out. The source made the active and inactive calls. Calls come from the whole dose curve; as a rule, active = well fitted cell-killing curve with a large enough effect; inconclusive = small, poorly fitted or top-dose-only effect, or effect the other way; inactive = flat fitted curve, though single readings scatter.
Hello, when you answer, please use one of the following outcomes: active, inactive

Worked examples, 5 molecules total:
[
  {
    "molecule": "CCCCOc1ccc(C(=O)Nc2ccc(F)cc2F)cc1",
    "classification": "inactive"
  },
  {
    "molecule": "CC(O)(C#Cc1ccc2c(c1)N(c1nc(N)ncc1Cl)CC2)c1nccs1 (stereo not drawn)",
    "classification": "inactive"
  },
  {
    "molecule": "Cc1cnc(Nc2ccc(CN3CCOCC3)cc2)nc1Nc1cccc(S(=O)(=O)NC(C)(C)C)c1",
    "classification": "active"
  },
  {
    "molecule": "C=CC(=O)Nc1ccc2ncnc(Nc3ccc(OCc4cccc(F)c4)c(Cl)c3)c2c1",
    "classification": "active"
  },
  {
    "molecule": "CC1(C)O[C@@H]2C[C@H]3[C@@H]4CCC5=CC(=O)C=C[C@]5(C)[C@@H]4[C@@H](O)C[C@]3(C)[C@]2(C(=O)CO)O1",
    "classification": "inactive"
  }
]

Qu. Recorded test outcome, item "CCN(CC)Cc1ccc2cc(COC(=O)Nc3ccc(C(=O)NO)cc3)ccc2c1"
Ans. active

Qu. Recorded test outcome, item "Cc1cn([C@@H]2O[C@H](CO)[C@@H](O)[C@H]2F)c(=O)[nH]c1=O"
Ans. inactive

Qu. Recorded test outcome, item "c1cncc(CN2CCC(n3ncc4c(N5CCOCC5)nc(-c5ccc6[nH]ccc6c5)nc43)CC2)c1"
Ans. active

Qu. Recorded test outcome, item "Cc1coc2c1C(=O)C(=O)c1c-2ccc2c(C)cccc12"
Ans. inactive

Qu. Recorded test outcome, item "Cc1cncc2cccc(S(=O)(=O)N3CCCN(C(=O)CN)C[C@@H]3C)c12"
Ans. inactive

Qu. Recorded test outcome, item "Cc1ncc(-c2ccnc(Nc3ccc(S(C)(=O)=O)cc3)n2)n1C(C)C"
Ans. active

Qu. Recorded test outcome, item "Oc1ccc([C@@H]2Oc3ccc(O)cc3[C@@H]3CCC[C@@H]32)cc1"
Ans. inactive

Qu. Recorded test outcome, item "c1ccc2c(Oc3nc(Nc4ccc(N5CCOCC5)cc4)c4ncn(C5CCCCC5)c4n3)cccc2c1"
Ans. inactive
